System: HMLE_sh_eGFP viability, CellTiter-Glo luminescence, 72 h
Test: cytotoxicity in HMLE control line with eGFP shRNA, dose response, counter-screen for HMLE_sh_ECad selective toxicity project, cell-based, HMLE_sh_eGFP, luminescence (AID 463074);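 further: counterscreen control line to flag general toxicity for the HMLE_sh_ECad screen; potency for loss of viability as luminescence drops below DMSO wells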
quantity: AC50

Check out these entries, answers already filled in.
compound: O=C(NCc1cccnc1)c1ccc(NC(=O)c2ccc(Br)cc2)cc1
AC50: 3.11 µM
--
compound: CC(C)CC(=O)c1c(O)c(C=O)c(O)c2c1O[C@@]1(C)[C@@H](C2)C[C@H]2C[C@@H]1C2(C)C
AC50: 6.32 µM

In one line, give reported AC50 of the entry O=C(c1ccc(C#CC2(O)CCCCC2)cc1)N1CCN(C(c2ccccc2)c2ccccc2)CC1 .
2.52 µM

Answer with reported AC50 of COc1ccc(-c2csc(NC(=S)NC(=O)/C=C/c3ccco3)n2)cc1Br
1.98 µM

Dear colleague, please send me the reported AC50 for CCc1ccc(N(CC(=O)Nc2nc3ccc(C)cc3s2)S(=O)(=O)c2c(C)noc2C)cc1 when you can.
6 µM

Tell me AC50 reported for C=CCn1c(O)c(C2=c3ccccc3=NC2=O)c2ccccc21
7.4 µM

Tell me measured AC50 for C[C@@H]1CN([C@@H](C)CO)C(=O)Cc2cc(NC(=O)Nc3ccc(C(F)(F)F)cc3)ccc2O[C@@H]1CN(C)S(=O)(=O)c1ccc(Cl)cc1 please.
1.78 µM

Report AC50 for Cc1cc2oc(=O)c(CC(=O)NCCCN(C)C)c(C)c2c2occ(C(C)(C)C)c12
2.85 µM

Please indicate AC50 recorded for O=C(NC1CCCCC1)C(c1cccnc1)N(C(=O)CCl)c1ccc(F)cc1 (centres undefined)
3.47 µM

###

System: HMLE_sh_eGFP viability, CellTiter-Glo luminescence, 72 h
Experiment: cytotoxicity in HMLE control line with eGFP shRNA, dose response, counter-screen for HMLE_sh_ECad selective toxicity project, cell-based, HMLE_sh_eGFP, luminescence (AID 463074);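 further: counterscreen control line to flag general toxicity for the HMLE_sh_ECad screen; potency for loss of viability as luminescence drops below DMSO wells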;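 active means AC50 no more than tenfold above the top dose tested, or full inhibition at every dose with a flat fit (cut at about 19 µM in these data); inconclusive means flat curve fit with inhibition between 30% and 70%, or poor fit; inactive means AC50 more than tenfold above the top dose tested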
Choose the fitting class; nothing outside active, inactive is accepted.

compound: Cc1ccc(C2(c3noc(CN4CCC(c5ccncc5)CC4)n3)CCCC2)cc1
class_assignment: active

Consider the additional compound presented here.
For O=S(=O)(c1ccc2ccccc2c1)N1CCN(c2ccc(O)cc2)CC1 , what call appears in the results of this test?
active

###

Tested on: HMLE_sh_eGFP viability, CellTiter-Glo luminescence, 72 h
Experiment: cytotoxicity in HMLE control line with eGFP shRNA, dose response, counter-screen for HMLE_sh_ECad selective toxicity project, cell-based, HMLE_sh_eGFP, luminescence (AID 463074);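 further: counterscreen control line to flag general toxicity for the HMLE_sh_ECad screen; potency for loss of viability as luminescence drops below DMSO wells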
Activity calls are given as the source filed them.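 Rule for the calls: active = AC50 no more than tenfold above the top dose tested, or full inhibition at every dose with a flat fit (cut at about 19 µM in these data); inconclusive = flat curve fit with inhibition between 30% and 70%, or poor fit; inactive = AC50 more than tenfold above the top dose tested.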
Hello, when you answer, please use one of the following outcomes: active, inactive

molecule: CC1(C)Cc2c(c(N3CCOCC3)nc3sc4c(NN)ncnc4c23)CS1
class_assignment: active
//
molecule: COc1ccc2c(c1)CCc1c(C(=O)N3CC4(C)CC3CC(C)(C)C4)noc1-2 (stereo not given)
class_assignment: active
//
molecule: COC(=O)c1cc(=O)n(Cc2cccs2)c(=Nc2ccc(F)cc2)s1
class_assignment: active
//
molecule: CCCc1nc2ccccc2c(C(=O)OCC(=O)Nc2ccc(S(=O)(=O)N3CCOCC3)cc2)c1CC
class_assignment: active
//
molecule: C=C(C)COc1ccc(-c2n[nH]c(C)c2-c2ccc(Br)cc2)c(O)c1
class_assignment: active

Query: recorded result category for Cc1cc(C(C)(C)C)ccc1OCCCCN1CCCC1 in this test
active

Entry COc1ccc(-c2sc3ccccc3c2C#CCCO)cc1 : call = ?
active

What classification did N#Cc1c([N+](=O)[O-])cc([N+](=O)[O-])cc1S(=O)(=O)Cc1ccccc1 end up with in this test?
active

Which outcome did this test record for the molecule C=Cn1ccnc1P(=S)(c1ccc2c(c1)c1ccccc1n2CC)c1nccn1C=C ?
active

Recorded call for COc1ccc(-c2c(-c3cc(OC)cc(OC)c3)n(C)c3ccc(-c4cc(F)cc(OC)c4)cc23)cc1 ?
inactive
